- target: T1, AAV8 (adeno-associated virus 8)
- T1 construct: also called adeno-associated virus serotype 8
- procedureSummary: SPR, AAV amine-coupled to CM5 chip;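 note: nanobodies flowed as analyte at seven concentrations spanning 1–100 nM over immobilized AAV (500–800 RU), kinetic constants derived by fitting the binding curves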
// NB: equality with 100000 M⁻¹ s⁻¹ counts as condition not met; only kon strictly below is condition met

Study these solved cases before continuing.
>  <binder>
A4-092 (VHH) VHH: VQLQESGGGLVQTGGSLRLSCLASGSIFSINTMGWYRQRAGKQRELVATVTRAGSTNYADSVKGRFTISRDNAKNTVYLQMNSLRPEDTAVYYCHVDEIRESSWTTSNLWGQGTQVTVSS

>  <labelValue>
condition not met

$$$$
>  <binder>
A4-088 (VHH) VHH: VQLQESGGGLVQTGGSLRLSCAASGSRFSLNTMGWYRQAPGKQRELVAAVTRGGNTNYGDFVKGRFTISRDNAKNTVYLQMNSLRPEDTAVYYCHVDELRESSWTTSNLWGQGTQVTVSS

>  <labelValue>
condition met

$$$$

hey, is kon for A4-065 (VHH) VHH: VQLQESGGGLVQSGGSLRLSCAASGRNFSLNTVGWYRQAPGKQRELVATVTRGGSTNYAGSVKGRFTISRDNAKNTVYLQMNSLRPEDTAVYYCHVDEVRESSWTTSNLWGQGTQVTVSS lower than 100000 M⁻¹ s⁻¹ or not?
condition met

hey, is kon for A4-097 (VHH) VHH: VQLQESGGGLVQPGGSLRLSCIASGSIFSANTMGWYRQAPGKQRELVATITRGGNTNYGDSVKGRFTISRDNAKNTVYLQMNTLRPEDTAVYYCHVDEIRESSWTTSNLWGQGTQVTVSS lower than 100000 M⁻¹ s⁻¹ or not?
condition not met
